Origin of measurements: patent US7354936B2

Entries and their measured melting point follow.
Just the number please, in °C, no unit attached.

Some solved entries appear below for comparison.
[
  {
    "smiles.notation": "Cc1oc(-c2ccc(S(C)(=O)=O)cc2)c(Oc2ccc(F)cc2F)c(=O)c1Cl",
    "parameter": "melting point",
    "numeric.result": 210
  },
  {
    "smiles.notation": "CC(=O)OCc1cc(=O)c(Oc2ccc(F)cc2F)c(-c2ccc(S(C)(=O)=O)cc2)o1",
    "parameter": "melting point",
    "numeric.result": 175
  },
  {
    "smiles.notation": "COCc1cc(=O)c(Oc2ccc(F)cc2F)c(-c2ccc(S(C)(=O)=O)cc2)o1",
    "parameter": "melting point",
    "numeric.result": 124
  },
  {
    "smiles.notation": "Cc1ccc(Oc2c(-c3ccc(S(C)(=O)=O)cc3)oc(C(F)F)cc2=O)cc1",
    "parameter": "melting point",
    "numeric.result": 160
  },
  {
    "smiles.notation": "CC(=O)OCc1cc(=O)c(Oc2ccc(Cl)cc2)c(-c2ccc(S(C)(=O)=O)cc2)o1",
    "parameter": "melting point",
    "numeric.result": 115
  }
]

Prompt: # return recorded melting point for entry Cc1cc(=O)c(Oc2ccccc2C)c(-c2ccc(S(C)(=O)=O)cc2)o1
Response: 168

Prompt: Please list melting point recorded for the compound Cc1oc(-c2ccc(S(C)(=O)=O)cc2)c(Oc2ccc(Cl)cc2)c(=O)c1Cl
Response: 274

====

biological target: COX-2 (Homo sapiens); construct: incubated in the presence of LPS (10:g/ml) for 24 h at 37° C. in order to induce the COX-2 expression; from tissue; host or cells: human whole blood (heparinized) from healthy volunteers, LPS-stimulated for 24 h; test: COX-2 activity in human whole blood (PGE2, LPS-induced); type: cell-based; conditions: LPS 24 h at 37° C., PGE2 by ELISA
parameter: pIC50
Please treat pIC50 as minus the base-10 logarithm of the molar concentration.

As a guide, the following entries are already answered.
[
  {
    "smiles.notation": "Cc1oc(-c2ccc(S(C)(=O)=O)cc2)c(Oc2ccc(F)cc2F)c(=O)c1C",
    "pIC50": 7.09
  },
  {
    "smiles.notation": "Cc1cc(=O)c(Oc2ccc(Cl)cc2C)c(-c2ccc(S(C)(=O)=O)cc2)o1",
    "pIC50": 6.89
  }
]

Prompt: Identify measured pIC50 obtained with COX-2 (Homo sapiens) for Cc1ccc(Oc2c(-c3ccc(S(C)(=O)=O)cc3)oc(C(F)F)cc2=O)cc1 .
Response: 7.01

Prompt: Find the measured pIC50 of Cc1cc(=O)c(Oc2ccc(F)cc2C)c(-c2ccc(S(C)(=O)=O)cc2)o1 with COX-2 (Homo sapiens) as test system.
Response: 6.74

Prompt: Report pIC50 under test system COX-2 (Homo sapiens) for C=Cc1c(C)oc(-c2ccc(S(C)(=O)=O)cc2)c(Oc2ccc(F)cc2F)c1=O .
Response: 5.84

Prompt: GET pIC50 | system: COX-2 (Homo sapiens) | item: Cc1cc(=O)c(Oc2ccc(Br)cc2Br)c(-c2ccc(S(C)(=O)=O)cc2)o1
Response: 5.95

====

target: COX-2 (Homo sapiens, UniProt P35354); construct: incubated in the presence of LPS (10:g/ml) for 24 h at 37° C. in order to induce the COX-2 expression; from tissue; host or cells: human whole blood (heparinized) from healthy volunteers, LPS-stimulated for 24 h; assay: COX-2 activity in human whole blood (PGE2, LPS-induced); assay type: cell-based; conditions: ratio of COX-1/COX-2 IC50 values
Measured Ratio COX-1/COX-2 by item
Answer with a bare number; do not write a unit.

Examples from the recorded data:
[
  {
    "molecule": "Cc1cccc(Oc2c(-c3ccc(S(C)(=O)=O)cc3)oc(C)cc2=O)c1 [Example 11]",
    "target.of.assay": "COX-2 (Homo sapiens, UniProt P35354)",
    "Ratio COX-1/COX-2": 47
  },
  {
    "molecule": "Cc1cc(=O)c(Oc2ccc(F)cc2C)c(-c2ccc(S(C)(=O)=O)cc2)o1 [Example 1]",
    "target.of.assay": "COX-2 (Homo sapiens, UniProt P35354)",
    "Ratio COX-1/COX-2": 118
  },
  {
    "molecule": "COCc1cc(=O)c(Oc2ccc(F)cc2)c(-c2ccc(S(C)(=O)=O)cc2)o1 [Example 27]",
    "target.of.assay": "COX-2 (Homo sapiens, UniProt P35354)",
    "Ratio COX-1/COX-2": 270
  },
  {
    "molecule": "Cc1ccc(Oc2c(-c3ccc(S(C)(=O)=O)cc3)oc(C)cc2=O)c(Cl)c1 [Example 3]",
    "target.of.assay": "COX-2 (Homo sapiens, UniProt P35354)",
    "Ratio COX-1/COX-2": 68
  },
  {
    "molecule": "CS(=O)(=O)c1ccc(-c2oc(C(=O)O)cc(=O)c2Oc2ccc(F)cc2F)cc1 [Example 32]",
    "target.of.assay": "COX-2 (Homo sapiens, UniProt P35354)",
    "Ratio COX-1/COX-2": 1070
  }
]

Prompt: Please report the measured Ratio COX-1/COX-2 for COCc1cc(=O)c(Oc2ccc(Cl)cc2)c(-c2ccc(S(C)(=O)=O)cc2)o1 [Example 28]
Response: 209

Prompt: Give the value of Ratio COX-1/COX-2 reported for the following: Cc1cc(=O)c(Oc2ccc(Br)cc2F)c(-c2ccc(S(C)(=O)=O)cc2)o1 [Example 6]
Response: 268

====

Label 1 when melting point is at or above 200 °C; otherwise label 0.

Solved cases below.
[
  {
    "smiles.notation": "Cc1cccc(Oc2c(-c3ccc(S(C)(=O)=O)cc3)oc(C)cc2=O)c1",
    "class.name": 0
  },
  {
    "smiles.notation": "Cc1oc(-c2ccc(S(C)(=O)=O)cc2)c(Oc2ccc(F)cc2)c(=O)c1Cl",
    "class.name": 1
  },
  {
    "smiles.notation": "CS(=O)(=O)c1ccc(-c2oc(C(F)F)cc(=O)c2Oc2ccc(F)cc2F)cc1",
    "class.name": 0
  },
  {
    "smiles.notation": "CS(=O)(=O)c1ccc(-c2oc(C(=O)O)cc(=O)c2Oc2ccc(Cl)cc2)cc1",
    "class.name": 1
  },
  {
    "smiles.notation": "COCc1cc(=O)c(Oc2ccc(Cl)cc2)c(-c2ccc(S(C)(=O)=O)cc2)o1",
    "class.name": 0
  }
]

Now let's try a different one.
Prompt: Identify whether the reported melting point of the following compound is 200 °C or greater: Cc1cc(=O)c(Oc2ccc(F)cc2C)c(-c2ccc(S(C)(=O)=O)cc2)o1
Response: 0

====

parameter: melting point (°C)
Numbers only; they are read as °C.

Use the examples below as a reference point.
[
  {
    "smiles.notation": "CS(=O)(=O)c1ccc(-c2oc(CO)cc(=O)c2Oc2ccc(Cl)cc2)cc1",
    "numeric.result": 227
  },
  {
    "smiles.notation": "CC(=O)OCc1cc(=O)c(Oc2ccc(F)cc2)c(-c2ccc(S(C)(=O)=O)cc2)o1",
    "numeric.result": 180
  }
]

Prompt: Give reported melting point value for CS(=O)(=O)c1ccc(-c2oc(C(=O)O)cc(=O)c2Oc2ccc(F)cc2F)cc1
Response: 245

====

Biological target: COX-2 (Homo sapiens, UniProt P35354)
Construct: incubated in the presence of LPS (10:g/ml) for 24 h at 37° C. in order to induce the COX-2 expression; from tissue; host or cells: human whole blood (heparinized) from healthy volunteers, LPS-stimulated for 24 h
Sequence (P35354 18-604): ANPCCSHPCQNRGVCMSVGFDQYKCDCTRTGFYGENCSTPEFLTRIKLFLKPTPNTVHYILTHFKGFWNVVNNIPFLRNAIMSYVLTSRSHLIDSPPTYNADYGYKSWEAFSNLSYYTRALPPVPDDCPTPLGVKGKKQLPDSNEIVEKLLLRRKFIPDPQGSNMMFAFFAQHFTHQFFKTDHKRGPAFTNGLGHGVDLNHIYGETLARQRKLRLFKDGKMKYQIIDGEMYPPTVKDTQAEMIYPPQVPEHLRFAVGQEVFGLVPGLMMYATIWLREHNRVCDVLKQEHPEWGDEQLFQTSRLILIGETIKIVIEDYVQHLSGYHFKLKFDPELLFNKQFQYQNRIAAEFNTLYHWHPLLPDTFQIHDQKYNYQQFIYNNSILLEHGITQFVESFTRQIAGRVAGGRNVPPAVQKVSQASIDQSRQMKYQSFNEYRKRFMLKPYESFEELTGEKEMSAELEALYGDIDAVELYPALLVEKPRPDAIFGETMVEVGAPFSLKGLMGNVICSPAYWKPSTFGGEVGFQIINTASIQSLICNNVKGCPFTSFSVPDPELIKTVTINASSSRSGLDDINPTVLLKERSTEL
Assay: COX-2 activity in human whole blood (PGE2, LPS-induced)
Type: cell-based
Settings: ratio of COX-1/COX-2 IC50 values
Documented Ratio COX-1/COX-2 across a set of molecules
Could you keep your reply to the number by itself?

Illustrative cases are given below, each with its answer.
[
  {
    "smiles.notation": "CCc1c(C)oc(-c2ccc(S(C)(=O)=O)cc2)c(Oc2ccc(F)cc2F)c1=O",
    "Ratio COX-1/COX-2": 62
  },
  {
    "smiles.notation": "Cc1cc(=O)c(Oc2ccc(Cl)cc2C)c(-c2ccc(S(C)(=O)=O)cc2)o1",
    "Ratio COX-1/COX-2": 296
  }
]

Prompt: Identify Ratio COX-1/COX-2 associated with the molecule Cc1oc(-c2ccc(S(C)(=O)=O)cc2)c(Oc2ccc(F)cc2F)c(=O)c1C
Response: 178
